target: recombinant human urokinase receptor (truncated, soluble; suPAR) (Homo sapiens, UniProt Q03405); construct: expressed as a truncated, soluble molecule as described previously for mouse L-cells (Masucci et al., J Biol Chem (1991) 266:8655); made in house; assay: 125I-ATF competition binding on immobilized soluble recombinant human urokinase receptor; details: synthesized peptide; corrected to 100 pM ATF, 0.3 μg/mL suPAR conditions, corrections about 3 × from previous assay conditions; read-out: Affinity
Sequence (Q03405 23-299 limits assumed): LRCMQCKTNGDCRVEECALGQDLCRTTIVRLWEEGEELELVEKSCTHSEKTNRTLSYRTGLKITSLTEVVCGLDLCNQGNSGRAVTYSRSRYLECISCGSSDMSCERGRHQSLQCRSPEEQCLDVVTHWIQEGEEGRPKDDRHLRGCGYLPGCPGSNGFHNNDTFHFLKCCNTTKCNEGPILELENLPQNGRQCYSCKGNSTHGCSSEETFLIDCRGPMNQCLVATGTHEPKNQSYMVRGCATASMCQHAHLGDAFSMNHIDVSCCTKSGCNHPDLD
Peptide text beside a SMILES is read from it.
measured property: Kd (µM)
Report the value in µM with no unit label.

Examples from the recorded data:
compound	measured property	value
CC[C@H](C)[C@H](NC(=O)[C@H](CO)NC(=O)[C@@H](NC(=O)[C@H](CC(C)C)NC(=O)[C@@H](NC(=O)[C@@H]1CCCN1C(=O)[C@H](CC(C)C)NC(=O)[C@H](CO)NC(=O)[C@H](CCC(=O)O)NC(=O)[C@H](C)N)[C@@H](C)O)[C@@H](C)O)C(=O)N[C@@H](CC(C)C)C(=O)N[C@@H](Cc1c[nH]c2ccccc12)C(=O)NCC(=O)N[C@@H](CCCCN)C(=O)N[C@@H](CCC(=O)O)C(=O)N[C@@H](CO)C(=O)N[C@H](C(N)=O)C(C)C (H-AESLPTLTSILWGKESV-NH2)	Kd	7
CC[C@H](C)[C@H](NC(=O)[C@@H](NC(=O)[C@H](CCC(N)=O)NC(=O)[C@@H]1CCCN1C(=O)[C@H](CCC(=O)O)NC(=O)[C@@H]1CCCN1C(=O)[C@H](CC(C)C)NC(=O)[C@H](Cc1c[nH]cn1)NC(=O)[C@H](CC(C)C)NC(=O)[C@H](CC(N)=O)NC(=O)[C@H](Cc1ccc(O)cc1)NC(=O)[C@H](Cc1ccccc1)NC(=O)[C@H](CO)NC(=O)[C@H](Cc1c[nH]c2ccccc12)NC(=O)[C@H](CCC(=O)O)NC(=O)[C@H](C)N)[C@@H](C)O)C(=O)N[C@@H](Cc1ccccc1)C(N)=O (H-AEWSFYNLHLPEPQTIF-NH2)	Kd	5
CSCC[C@H](NC(=O)[C@@H](NC(=O)[C@H](CC(N)=O)NC(=O)[C@H](CO)NC(=O)[C@H](CC(C)C)NC(=O)[C@H](Cc1ccccc1)NC(=O)[C@H](Cc1c[nH]c2ccccc12)NC(=O)[C@H](C)NC(=O)[C@H](CCC(=O)O)NC(=O)[C@H](C)N)[C@@H](C)O)C(=O)N[C@@H](CCCCN)C(=O)N[C@@H](C)C(=O)N[C@@H](CC(C)C)C(=O)N[C@@H](CO)C(=O)N[C@@H](C)C(=O)N[C@@H](CCCNC(=N)N)C(=O)N[C@@H](CC(C)C)C(N)=O (H-AEAWFLSNTMKALSARL-NH2)	Kd	4

The record that follows has no Kd shown yet.
Consider CSCC[C@H](NC(=O)[C@H](CO)NC(=O)[C@@H]1CCCN1C(=O)[C@H](Cc1c[nH]c2ccccc12)NC(=O)[C@H](C)NC(=O)[C@H](Cc1ccc(O)cc1)NC(=O)[C@H](CCCNC(=N)N)NC(=O)[C@@H](NC(=O)[C@H](Cc1c[nH]c2ccccc12)NC(=O)[C@H](CC(C)C)NC(=O)[C@H](CO)NC(=O)[C@H](CO)NC(=O)[C@H](CCC(=O)O)NC(=O)[C@H](C)N)[C@@H](C)O)C(=O)N1CCC[C@H]1C(=O)N[C@@H](CO)C(=O)N[C@@H](Cc1ccc(O)cc1)C(N)=O (H-AESSLWTRYAWPSMPSY-NH2) . Its measured Kd is 0.35
